// provenance: paper doi:10.1101/2024.08.19.608619

Below, each entry is listed alongside its reported perc_remaining_no_cofactor.
Assay: Hepatic microsomal stability, HLM
Format: in vitro ADME, human
Settings: In vitro human liver microsomal stability; no cofactor
Express the result in % but write the number alone.

Solved cases (5 shown):
                                   compound  reported_measurement
0  CC(C)[C@H](Nc1ncnc2[nH]c(-c3cnn(CC(N)=O)c3)cc12)c1ccc2c(c1)OCCO2 [ASAP-0008449]                 102.0
1  CC(C)(C)[C@H](Nc1ncnc2[nH]c(-c3cnn(CC(N)=O)c3)cc12)c1ccc2c(n1)OCCO2 (single isomer, unassigned) [ASAP-0011159]                  95.0
2  CC(C)C(Nc1ncnc2[nH]c(C(=O)NC3CCN(C)C3)cc12)c1ccc2c(c1)S(=O)(=O)CCC2 (centres unmarked)                 106.0
3  CC(C)[C@H](Nc1ncnc2[nH]c(-c3cnn(C)c3C#N)cc12)c1ccc2c(c1)NC(=O)CO2 (single isomer, unassigned) [ASAP-0013256]                 109.0
4  CNC(=O)c1cc2c(N[C@H](c3ccc4c(c3)S(=O)(=O)CCC4)C(C)C)ncnc2[nH]1 (single isomer, unassigned)                 107.0

The compound listed as C[C@H](C(=O)O)[C@@H](NC(=O)c1ncnc2[nH]ccc12)c1ccc(Br)cc1 shows perc_remaining_no_cofactor equal to 101.611

The compound listed as CC(C)[C@H](Nc1ncnc2[nH]cc(C(=O)NC3CC3)c12)c1ccc2c(c1)S(=O)(=O)CCC2 (racemic) [ASAP-0008647] shows perc_remaining_no_cofactor equal to 90.0

The compound listed as COc1ccc([C@@H](Cc2nnn[nH]2)NC(=O)c2ncnc3[nH]ccc23)cc1 shows perc_remaining_no_cofactor equal to 110.0

###

Experiment: Permeability Papp (AB) MDR1/MDCKII
Settings: In vitro MDR1-MDCKII permeability, A to B, no inhibitor
ASSAY_ENDPOINT: papp_a_to_b_mean (×10⁻⁶ cm/s)
Express the result in ×10⁻⁶ cm/s but write the number alone.

Solved cases (4 shown):
>>> print(df.to_string())
                                   compound    assay_endpoint  reported_measurement
0  CC(C)(C)[C@H](Nc1ncnc2[nH]c(-c3cnn(CC(N)=O)c3)cc12)c1ccc2c(n1)OCCO2 (single isomer, unassigned)  papp_a_to_b_mean                  1.02
1  CC(C)[C@H](Nc1ncnc2[nH]c(-c3cnn(C)c3C#N)cc12)c1ccc2c(n1)NC(=O)CO2 (single isomer, unassigned)  papp_a_to_b_mean                0.0964
2  CC(C)[C@H](Nc1ncnc2[nH]c(-c3cnn(C)c3)cc12)c1ccc2c(c1)S(=O)(=O)CCC2 (single isomer, unassigned)  papp_a_to_b_mean                  1.18
3  CC(C)(C)[C@H](Nc1ncnc2[nH]c(-c3cnn(CC(N)=O)c3)cc12)c1ccc2c(c1)OCCO2 (single isomer, unassigned) [ASAP-0012330]  papp_a_to_b_mean                 0.364

The compound listed as CCNC(=O)c1cc2c(N[C@H](c3ccc4c(c3)OCCO4)C(C)C)ncnc2[nH]1 [ASAP-0013824] shows papp_a_to_b_mean equal to 2.7

The compound listed as CNC(=O)c1c[nH]c2ncnc(N[C@@H](c3ccc4c(c3)S(=O)(=O)CCC4)C(C)C)c12 shows papp_a_to_b_mean equal to 0.857

The compound listed as CC(C)[C@H](Nc1ncnc2[nH]c(C(=O)N[C@H]3CCN(C)C3)cc12)c1ccc2c(c1)S(=O)(=O)CCC2 shows papp_a_to_b_mean equal to 0.175

###

Test: Permeability Papp (AB) MDR1/MDCKII
Settings: In vitro MDR1-MDCKII permeability, no inhibitor
Everything with efflux_ratio lower than 0.9 is Condition not met; everything else, including exactly 0.9, is Condition met.

The examples below pair each entry with its known result.
In [3]: df
Out[3]:
                                   compound        group_label
0  CNC(=O)c1cc2c(N[C@@H](c3ccc4c(c3)S(=O)(=O)CCC4)C(C)C)ncnc2[nH]1 (single isomer, unassigned)      Condition met
1  COc1ccc([C@H](Cc2nnn[nH]2)NC(=O)c2ncnc3[nH]ccc23)cc1  Condition not met
2  CC(C)[C@@H](Nc1ncnc2[nH]c(C(=O)N[C@H]3CCN(C)C3)cc12)c1ccc2c(c1)S(=O)(=O)CCC2 (single isomer, unassigned)  Condition not met
3  CC(C)[C@@H](Nc1ncnc2[nH]c(-c3cnn(C)c3C#N)cc12)c1ccc2c(c1)S(=O)(=O)CCC2 (single isomer, unassigned)      Condition met
4  CC(C)[C@H](Nc1ncnc2[nH]c(-c3cnn(C)c3C#N)cc12)c1ccc2c(n1)NC(=O)CO2 (single isomer, unassigned)      Condition met

stdin: hey, is efflux_ratio for this one >= 0.9? C[C@H](C(=O)O)[C@@H](NC(=O)c1ncnc2[nH]ccc12)c1ccc(Br)cc1
stdout: Condition met

###

Below, each entry is listed alongside its reported Papp B→A.
Tested on: MDR1
Assay: Permeability Papp (AB) MDR1/MDCKII
Details: dog, MDCK-MDR1, papp_b_to_a_mean, In vitro MDR1-MDCKII permeability, B to A, no inhibitor
Express the result in ×10⁻⁶ cm/s but write the number alone.

>>> print(df.to_string())
                                   molecule  reported_measurement
0  Cc1nn(C)cc1-c1cc2c(NC(c3ccc4c(c3)S(=O)(=O)CCC4)C(C)C)ncnc2[nH]1 (centres unmarked)                   3.7

The molecule listed as CC(C)C(Nc1ncnc2[nH]c(C(=O)NC3CCN(C)C3)cc12)c1ccc2c(c1)S(=O)(=O)CCC2 (centres unmarked) shows Papp B→A equal to 0.0411

###

Test: Hepatic microsomal stability, HLM
Assay type: in vitro ADME, human
Conditions: In vitro human liver microsomal stability
ASSAY_ENDPOINT: t_half (min)
Express the result in min but write the number alone.

                                   compound  assay_endpoint  reported_measurement
0  CNC(=O)c1cc2c(N[C@@H](c3ccc4c(c3)OCCO4)C(C)C)ncnc2[nH]1          t_half                  21.1
1  CC(C)[C@@H](Nc1ncnc2[nH]c(-c3cnn(CCC(N)=O)c3)cc12)c1ccc2c(c1)OCCO2          t_half                  16.9
2  CNC(=O)c1cc2c(N[C@@H](c3ccc4c(c3)NC(=O)CO4)C(C)C)ncnc2[nH]1 [ASAP-0008571]          t_half                  32.0
3  COc1ccc([C@H](Cc2nnn[nH]2)NC(=O)c2ncnc3[nH]ccc23)cc1          t_half              1085.642
4  CNC(=O)Cn1cc(-c2cc3c(N[C@H](c4ccc5c(c4)S(=O)(=O)CCC5)C(C)C)ncnc3[nH]2)cn1 (single isomer, unassigned)          t_half                  18.1

The compound listed as COc1ccc([C@H](CC(=O)O)NC(=O)c2ncnc3[nH]ccc23)cc1 (racemic) shows t_half equal to 240.4

The compound listed as CC(C)[C@H](Nc1ncnc2[nH]c(-c3cnn(CC(N)=O)c3)cc12)c1ccc2c(c1)S(=O)(=O)CCC2 (racemic) [ASAP-0008679] shows t_half equal to 14.4

The compound listed as O=C(Nc1ccccc1)Nc1ccc(C(=O)NC2c3cccc(O)c3CC2C(=O)O)cc1 (centres unmarked) shows t_half equal to 187.2

###

Assay: In vitro rat hepatocyte stability
Type: in vitro ADME
Label class 1 when t_half is strictly below 8 min; at or above that, label class 0.

                                   compound  group_label
0  CNCc1cc(-c2cc3c(N[C@@H](c4ccc5c(c4)S(=O)(=O)CCC5)C(C)C)ncnc3[nH]2)co1 [ASAP-0011176]      class 0
1  CC(C)[C@@H](Nc1ncnc2[nH]c(-c3cnn(C)c3C#N)cc12)c1ccc2c(n1)OCCO2 [ASAP-0010716]      class 1
2  Cn1ncc(-c2cc3c(N[C@@H](c4ccc5c(n4)OCCO5)C(C)(C)C)ncnc3[nH]2)c1C#N [ASAP-0011221]      class 1
3  CC(C)[C@H](Nc1ncnc2[nH]ccc12)c1ccc2c(c1)S(=O)(=O)CCC2 [ASAP-0008674]      class 0

stdin: API: query returns whether the compound falls strictly under 8 min in t_half. Query: COc1ccc([C@H](Cc2nnn[nH]2)NC(=O)c2ncnc3[nH]ccc23)cc1 [ASAP-0015381]
stdout: class 0

stdin: API: query returns whether the compound falls strictly under 8 min in t_half. Query: C[C@H](C(=O)O)[C@@H](NC(=O)c1ncnc2[nH]ccc12)c1ccc(Br)cc1 [ASAP-0014722]
stdout: class 0
